Target: Peptide 5: Biotin-…-[Tyr(PC)]-acid
Sequence (peptide, as listed by the source): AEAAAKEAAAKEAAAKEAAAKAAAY
Experiment: scFv ELISA
Measurement Name: OD450 (OD450)

Binder	Unit Of Measure	Data Value
PcOxP_DB02_A04 (scFv, V domains shown, scFv in periplasmic extract) VH: EVQLLESGGGLVQPGGSLRLSCAASGDTFSDFYMEWVRQAPGKGLEWVAASRNKWNDYTTEYADSVKGRFTISRDNSKNTLYLQMNSLRAEDTAVYYCARDYYGSSYWYFDVWGQGTLVTVSS VL: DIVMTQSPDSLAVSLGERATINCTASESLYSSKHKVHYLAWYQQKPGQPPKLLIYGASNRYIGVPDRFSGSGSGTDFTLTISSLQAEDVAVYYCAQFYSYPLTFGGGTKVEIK	OD450	0.82
PcOxP_DB02_B02 (scFv, V domains shown, scFv in periplasmic extract) VH: EVQLLESGGGLVQPGGSLRLSCAASGFTFSDYYMEWVRQAPGKGLEWVAASRNSGNDYTTEYADSVKGRFTISRDNSKNTLYLQMNSLRAEDTAVYYCARDYYGSSYWYFDVWGQGTLVTVSS VL: DIQMTQSPSSLSASVGDRVTITCTASESLYSSKHKVHYLAWYQQKPGKAPKLLIYGASNRLIGVPSRFSGSGSGTDFTLTISSLQPEDFATYYCAQFYWYPLTFGGGTKVEIK	OD450	0.98
PcOxP_DB03_E08 (scFv, V domains shown, scFv in periplasmic extract) VH: EVQLLESGGGLVQPGGSLRLSCAASGFTFSSFYMEWVRQAPGKGLEWVAASRNAANDYTTEYADSVKGRFTISRDNSKNTLYLQMNSLRAEDTAVYYCARDYYGSSYWYFDLWGQGTLVTVSS VL: DIQMTQSPSSLSASVGDRVTITCTASESLYSSKHKVHYLAWYQQKPGKAPKLLIYGASNRYIGVPSRFSGSGSGTDFTLTISSLQPEDFATYYCAQFYFYPLTFGGGTKVEIK	OD450	0.92
PcOxP_DB01_G11 (scFv, V domains shown, scFv in periplasmic extract) VH: EVQLLESGGGLVQPGGSLRLSCAASGFTFSDGYMEWVRQAPGKGLEWVAASRNKNNDYTTEYADSVKGRFTISRDNSKNTLYLQMNSLRAEDTAVYYCARDYFGSSYWYFDVWGQGTLVTVSS VL: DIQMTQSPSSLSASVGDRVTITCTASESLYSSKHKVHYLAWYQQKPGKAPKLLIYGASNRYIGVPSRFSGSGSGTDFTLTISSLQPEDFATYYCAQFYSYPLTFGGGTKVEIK	OD450	1.32
PcOxP_DB02_A11 (scFv, V domains shown, scFv in periplasmic extract) VH: EVQLLESGGGLVQPGGSLRLSCAASGFTFSDGYMEWVRQAPGKGLEWVAASRNIANDYTTEYADSVKGRFTISRDNSKNTLYLQMNSLRAEDTAVYYCARDYYGSSYWYFDVWGQGTLVTVSS VL: DIQMTQSPSSLSASVGDRVTITCTASESLYSSKHKVHYLAWYQQKPGKAPKLLIYGASNRYHGVPSRFSGSGSGTDFTLTISSLQPEDFATYYCAQFYYYPLTFGGGTKVEIK	OD450	0.89
